Target: Induced myeloid leukemia cell differentiation protein Mcl-1 (Homo sapiens, UniProt Q07820)
Sequence (Q07820 whole entry): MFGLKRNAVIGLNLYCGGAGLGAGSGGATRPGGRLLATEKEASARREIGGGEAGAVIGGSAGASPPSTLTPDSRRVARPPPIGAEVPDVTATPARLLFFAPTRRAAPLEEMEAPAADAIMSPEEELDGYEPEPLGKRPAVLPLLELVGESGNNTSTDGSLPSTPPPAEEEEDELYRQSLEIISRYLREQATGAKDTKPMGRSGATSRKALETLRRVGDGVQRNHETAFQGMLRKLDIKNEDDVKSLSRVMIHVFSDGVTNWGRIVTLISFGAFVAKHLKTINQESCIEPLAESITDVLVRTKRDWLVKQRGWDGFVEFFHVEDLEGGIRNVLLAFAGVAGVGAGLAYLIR
Test: regulators of Bim-Mcl-1 interaction, confirmation, biochemical, bead-based flow cytometry, multiplex, HTS hits (AID 2086)
QUANTITY: EC50 (µM)
Quick reminder: number only, in µM, skip the unit.

Return reported EC50; argument: Cc1ccc(C=NNC(=O)CSc2nnc(-c3ccc(Cl)cc3)n2-c2ccccc2)o1
7.75

* * *

Biological target: Induced myeloid leukemia cell differentiation protein Mcl-1 (Homo sapiens, UniProt Q07820)
Assay: regulators of Bim-Mcl-1 interaction, confirmation, biochemical, bead-based flow cytometry, multiplex, HTS hits (AID 2086)
Conditions: inactive by the depositor's call
QUANTITY: EC50 (µM)
Quick reminder: number only, in µM, skip the unit.

Return reported EC50; argument: CNC1CCC(Br)CC(C(=O)C=Cc2cccc(OC)c2OC)C1=O (stereo not drawn)
37.4

Return reported EC50; argument: COc1ccc(N2C(=O)C(Cl)=C(Oc3cccc(OC)c3)C2=O)cc1
1.65

Return reported EC50; argument: COc1ccc(CCNC(=O)c2ccc3nc(-c4ccco4)c(-c4ccco4)nc3c2)cc1OC
14.8
